B1: HEEH_KT_rd6_3632 (parent)
chain: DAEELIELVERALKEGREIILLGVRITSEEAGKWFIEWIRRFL

# Variants of: B1
# assayName: folding stability dG (cDNA display proteolysis); higher = more stable
# settings: PBS, room temperature
In this section we review reported folding stability dG values for a set of variants.
Write down the value, and be sure its unit follows.

Below: 5 variants and their reported folding stability dG.
mutationList: E18K
folding stability dG: 3.55 kcal/mol

mutationList: E18R
folding stability dG: 3.79 kcal/mol

mutationList: L22T
folding stability dG: 3.08 kcal/mol

mutationList: L22C
folding stability dG: 4.73 kcal/mol

mutationList: D1Q
folding stability dG: 3.93 kcal/mol

For F42V the variant record lists folding stability dG as 3.58 kcal/mol

For R11M the variant record lists folding stability dG as 3.41 kcal/mol

For K14W the variant record lists folding stability dG as 3.5 kcal/mol

For G32I the variant record lists folding stability dG as 4.12 kcal/mol

For S28F the variant record lists folding stability dG as 3.62 kcal/mol

For T27Q the variant record lists folding stability dG as 3.44 kcal/mol
